Molecular target: HLA-B*18:01
Test: IEDB peptide-MHC binding, purified MHC/competitive/fluorescence; filed as Kd, often an IC50 or EC50 that approximates it; bounds were set here for any values at or beyond the usual limits of such assays
Settings: source organism: Vibrio parahaemolyticus AQ3810
pKd: −log10 of the molar value.
ATTRIBUTE MEASURED: pKd

Problem: What does the data say about its pKd? Entry: MLTNASGHA
Result: ≤ 4.70

* * *

Target: HLA-A*31:01
Assay: IEDB peptide-MHC binding, purified MHC/competitive/radioactivity; filed as Kd, often an IC50 or EC50 that approximates it; bounds were set here for any values at or beyond the usual limits of such assays
Details: source organism: Mammarenavirus juninense
ATTRIBUTE MEASURED: Kd (µM)
Answer in µM, number only, no unit symbol.

Problem: What does the data say about its Kd? Entry: GFKNGSRHSH
Result: 0.882

Problem: What does the data say about its Kd? Entry: MVGLLSNSPH
Result: 2.89

* * *

Target: HLA-A*30:02
Assay: IEDB peptide-MHC binding, purified MHC/competitive/radioactivity; filed as Kd, often an IC50 or EC50 that approximates it; bounds were set here for any values at or beyond the usual limits of such assays
Conditions: source organism: Dengue virus 4 Philippines/H241/1956
ATTRIBUTE MEASURED: pKd
In plain terms, pKd is the concentration in mol/L turned into minus its base-10 logarithm.

Previously resolved entries follow.
- YAGPFSQHNY: 7.83
- KQITNELNY: 8.00
- SQHNYRQGY: 7.63

Then this sequence:
Problem: What does the data say about its pKd? Entry: KLRIKGMSY
Result: 7.10

* * *

Molecular target: HLA-A*29:02
Experiment: IEDB peptide-MHC binding, purified MHC/direct/fluorescence; filed as Kd, often an IC50 or EC50 that approximates it; bounds were set here for any values at or beyond the usual limits of such assays
Settings: source organism: Mycobacterium tuberculosis H37Rv
pKd: −log10 of the molar value.
ATTRIBUTE MEASURED: pKd

Problem: Notebook entry, HLA-A*29:02 assay: pKd of GTDSNGMLW = ?
Result: ≤ 4.70

* * *

Biological target: HLA-A*30:02
Test: IEDB peptide-MHC binding, purified MHC/competitive/radioactivity; filed as Kd, often an IC50 or EC50 that approximates it; bounds were set here for any values at or beyond the usual limits of such assays
Conditions: source organism: Dengue virus 2 Jamaica/1409/1983
# reported Kd; entries follow
Answer in nM, number only, no unit symbol.

Previously resolved entries follow.
• TIMAAILAY = 117
• RTPQDNQLTY = 1.02
• EKVDAIDGEY = 25.9

Then this sequence:
Problem: What does the data say about its Kd? Entry: KLQLKGMSY
Result: 131

* * *

# reported pKd; entries follow
Biological target: HLA-A*02:02
Test: IEDB peptide-MHC binding, purified MHC/competitive/radioactivity; filed as Kd, often an IC50 or EC50 that approximates it; bounds were set here for any values at or beyond the usual limits of such assays
Details: source organism: SARS coronavirus Tor2
In plain terms, pKd is the concentration in mol/L turned into minus its base-10 logarithm.

- IIFWFSLEI: 8.76
- FLLPSLATV: 9.87
- KLIEYSDFA: 10.02
- SLPSYAAYA: 8.18
- ALVFLILCFT: 6.68

Problem: What does the data say about its pKd? Entry: FVDEFYAYL
Result: 10.05
